# System: Saccharomyces cerevisiae growth inhibition, permissive control
# method description: yeast lifespan-shortening chemical project counter-assay, dose-response inhibition of growth under permissive conditions (AID 850);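 further: growth read as optical density after one day of incubation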
Calls of active or inactive are those of the source. How the calls were made is not given here.
Can you answer with just one of these options? active, inactive

molecule: O=C(O)CSc1cccc[n+]1[O-]
group label: active

molecule: Cc1ccc(CNC(=O)CS(=O)Cc2nc(-c3cccs3)oc2C)cc1 (stereo unspecified)
group label: inactive

Hi team, can someone confirm the assay call for COc1cc(OC)c(C2CC(=O)N3CN(C)CSC3=C2C#N)cc1OC (stereo unspecified) ? inactive

Hi team, can someone confirm the assay call for C=CCn1c(C)cc(C(=O)CSc2nnc(NCc3ccccc3)s2)c1C ? inactive

Hi team, can someone confirm the assay call for O=C(O)c1ccc2nc(-c3ccccc3)sc2c1 ? inactive

Hi team, can someone confirm the assay call for S=C(NCc1ccc(Cl)cc1)NC12CC3CC(CC(C3)C1)C2 ? inactive

Hi team, can someone confirm the assay call for CC(Oc1ccc2ccccc2c1)C(=O)NNC(=S)NC(=O)c1ccco1 (stereo unspecified) ? active

Hi team, can someone confirm the assay call for Cc1ccc(/C=C2\C(=O)Nc3ccccc32)o1 ? inactive

Hi team, can someone confirm the assay call for Cc1ccccc1OCCCN1C(=O)C(=O)c2cccc(C)c21 ? inactive

Hi team, can someone confirm the assay call for O=C1NC(c2ccccn2)Nc2sc3c(c21)CCC3 (stereo unspecified) ? inactive

Hi team, can someone confirm the assay call for CCc1ccc(/C=C/C(=O)c2cc(Br)ccc(=O)c2O)cc1 ? active

Hi team, can someone confirm the assay call for COc1ccc(C(=O)/C=C/N2CCCCC2)cc1OC ? active

Hi team, can someone confirm the assay call for CCN1/C(=C(\O)c2ccccc2)C(=O)c2ccccc2S1(=O)=O ? inactive

Hi team, can someone confirm the assay call for C=CCn1cnc2c(c1=O)c1nc3ccccc3nc1n2/N=C/c1cc(OC)c(OC)c(OC)c1 ? active

Hi team, can someone confirm the assay call for Cc1ccc(-c2nnc3ccc(SC(C)C(=O)O)nn23)cc1 (stereo unspecified) ? inactive

Hi team, can someone confirm the assay call for c1ccc2nc3c(nc2c1)[nH]c1ccccc13 ? inactive

Hi team, can someone confirm the assay call for CC1=CC(=O)C=C(C)C1=NOS(=O)(=O)c1ccccc1 ? active

Hi team, can someone confirm the assay call for O=C1CCN2C=Nc3cccc4ccc1c2c34 ? inactive

Hi team, can someone confirm the assay call for Cc1cc(N/N=C/c2ccc(Cl)cc2Cl)nc(NCc2ccccc2)n1 ? active

Hi team, can someone confirm the assay call for Cc1ccc(O)c(-c2cc(-c3ccccc3C)[nH]n2)c1 ? active
